target: T1, full length human c-Met on cells (human, UniProt P08581 25-1390); experiment: flow cytometry, Fab on GTL-16 cells
T1 construct: whole, on cells; NCI-H441 for migration; A549 for autophosphorylation; also called human c-Met GTL-16; c-Met on NCI-H441 cells
T1 sequence (P08581 25-1390): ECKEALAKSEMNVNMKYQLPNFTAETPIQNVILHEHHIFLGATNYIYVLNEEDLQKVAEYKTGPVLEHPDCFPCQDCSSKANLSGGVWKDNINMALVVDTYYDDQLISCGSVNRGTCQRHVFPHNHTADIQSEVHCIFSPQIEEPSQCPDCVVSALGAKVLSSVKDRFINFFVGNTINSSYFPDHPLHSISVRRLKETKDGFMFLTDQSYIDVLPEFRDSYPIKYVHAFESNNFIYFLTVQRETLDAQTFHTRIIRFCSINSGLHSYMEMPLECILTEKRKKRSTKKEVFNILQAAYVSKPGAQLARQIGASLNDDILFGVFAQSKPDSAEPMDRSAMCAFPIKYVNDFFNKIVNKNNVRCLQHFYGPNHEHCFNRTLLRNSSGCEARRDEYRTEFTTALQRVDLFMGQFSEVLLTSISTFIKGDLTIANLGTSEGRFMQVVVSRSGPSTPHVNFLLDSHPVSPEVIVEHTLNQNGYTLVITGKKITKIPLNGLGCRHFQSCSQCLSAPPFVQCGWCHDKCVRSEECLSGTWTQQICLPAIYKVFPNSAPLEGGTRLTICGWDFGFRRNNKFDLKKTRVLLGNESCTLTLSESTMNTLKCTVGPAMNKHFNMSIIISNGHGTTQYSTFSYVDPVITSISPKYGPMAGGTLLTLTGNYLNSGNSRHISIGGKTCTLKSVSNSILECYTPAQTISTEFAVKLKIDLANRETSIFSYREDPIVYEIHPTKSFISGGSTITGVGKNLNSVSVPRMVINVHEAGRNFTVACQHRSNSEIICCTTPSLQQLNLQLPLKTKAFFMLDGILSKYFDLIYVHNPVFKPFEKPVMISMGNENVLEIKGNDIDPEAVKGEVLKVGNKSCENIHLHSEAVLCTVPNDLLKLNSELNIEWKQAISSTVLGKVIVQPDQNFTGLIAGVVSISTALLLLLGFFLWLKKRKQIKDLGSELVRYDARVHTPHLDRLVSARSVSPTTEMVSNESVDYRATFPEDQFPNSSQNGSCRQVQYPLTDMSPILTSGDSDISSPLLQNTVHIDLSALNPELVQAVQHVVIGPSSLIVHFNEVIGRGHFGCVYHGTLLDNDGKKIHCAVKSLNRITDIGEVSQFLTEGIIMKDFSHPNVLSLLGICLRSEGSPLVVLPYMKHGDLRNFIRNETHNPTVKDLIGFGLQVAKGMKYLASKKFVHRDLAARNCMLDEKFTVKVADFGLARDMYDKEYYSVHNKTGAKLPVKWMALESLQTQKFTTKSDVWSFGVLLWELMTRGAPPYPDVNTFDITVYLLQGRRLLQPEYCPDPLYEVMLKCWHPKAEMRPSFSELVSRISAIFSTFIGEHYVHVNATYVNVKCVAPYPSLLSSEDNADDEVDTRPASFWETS
Field: Kd. Provide a value for each of the binders that follow.
Numbers only, in nM.

{"columns": ["binder", "units-label", "readout-number"],
 "data": [
  ["04687 (parental anti-cMet Fab antibody) (Fab, V domains shown, carries two C-terminal tags (FLAG and 6xHis)) VH: QVQLVQSGAEVKKPGSSVKVSCKASGGTFSSYAISWVRQAPGQGLEWMGGIDPFGTANYAQKFQGRVTITADESTSTAYMELSSLRSEDTAVYYCARVYQDVWGQGTLVTVSS VL: DIVMTQSPDSLAVSLGERATINCRSSQSILYGINNNFLGWYQQKPGQPPKLLIYWASTRESGVPDRFSGSGSGTDFTLTISSLQAEDVAVYYCQQYYNHPHTFGQGTKVEIKR", "nM", 4],
  ["04541 (parental anti-cMet Fab antibody) (Fab, V domains shown, carries two C-terminal tags (FLAG and 6xHis)) VH: QVQLQESGPGLVKPGETLSLTCTVSGGSISSSSYYWNWIRQAPGKGLEWIGEIYFGWTYYNPSLKGRVTISVDTSKNQFSLKLSSVTAEDTAVYYCARGYEFHGYTTFDYWGQGTLVTVSS VL: DIELTQPPSVSVAPGQTARISCSGDNIGSYYVYWYQQKPGQAPVLVIYDDNDRPSGIPERFSGSNSGNTATLTISGTQAEDEADYYCQSYDFPSIVFGGGTKLTVLG", "nM", 1.7],
  ["04536 (parental anti-cMet Fab antibody) (Fab, V domains shown, carries two C-terminal tags (FLAG and 6xHis)) VH: QVQLVQSGAEVKKPGASVKVSCKASGYTFTGYYMNWVRQAPGQGLEWMGIINPWTGNTNYAQKFQGRVTMTRDTSISTAYMELSSLRSEDTAVYYCARDPGFFYYTPSDLWGQGTLVTVSS VL: DIELTQPPSVSVAPGQTARISCSGDSIGNKYVHWYQQKPGQAPVLVIYADSDRPSGIPERFSGSNSGNTATLTISGTQAEDEADYYCQAYDSSMLRVFGGGTKLTVLG", "nM", 1.7]
]}

Please turn your attention to the following entry.
Suppose we examine the binder 04537 (parental anti-cMet Fab antibody) (Fab, V domains shown, carries two C-terminal tags (FLAG and 6xHis)) VH: QVQLVQSGAEVKKPGESLKISCKGSGYSFSNYWIGWVRQMPGKGLEWMGFIFPDTSYTRYSPSFQGQVTISADKSISTAYLQWSSLKASDTAMYYCARVKLITDYWGQGTLVTVSS VL: DIELTQPPSVSVAPGQTARISCSGDSLRSYFVSWYQQKPGQAPVLVIYDDDDRPSGIPERFSGSNSGNTATLTISGTQAEDEADYYCASWDTLSDVEVFGGGTKLTVLG ; what Kd value has been reported?
1.5
